system: Hepatitis B virus; assay: Antiviral activity against HBV in HepG2 2.2.15 cells after 24 hrs by DNA reduction assay; type: functional, organism-based; settings: HepG2, 24 h
Consider the following compounds; for each one, report its EC50.
Answers are plain numbers, in µM.

Here are 3 compounds together with their reported answers.
CCCCCCCCCCCCCCCCOCCCOP(=O)(O)CC/C=C\Cn1cnc2c(=O)nc(N)[nH]c21 :: 2.4
CCCCCCCCCCCCCCCCOCCCOP(=O)(O)CC/C=C\Cn1cc(C)c(=O)[nH]c1=O :: 2
CCCCCCCCCCCCCCCCOCCCOP(=O)(O)CC/C=C\Cn1cnc2c(N)ncnc21 :: 1.5

Now for another entry.
Provide measured EC50 value, entry: `CCCCCCCCCCCCCCCCOCCCOP(=O)(O)CC/C=C\Cn1ccc(N)nc1=O`
3.9

---

experiment: Cytotoxicity against HFF cells by neutral red uptake assay; assay type: cell-based; conditions: human
Readout Label: CC50

Observe how each entry below is paired with its result.
O=c1nc(O)ccn1C/C=C\CCP(=O)(O)O :: > 100 µM
Cc1cn(C/C=C\CCP(=O)(O)O)c(=O)[nH]c1=O :: > 100 µM
Nc1ncnc2c1ncn2C/C=C\CCP(=O)(O)O :: > 100 µM
CCCCCCCCCCCCCCCCOCCCOP(=O)(O)CC/C=C\Cn1ccc(N)nc1=O :: 56 µM
CCCCCCCCCCCCCCCCOCCCOP(=O)(O)CC/C=C\Cn1cnc2c(=O)nc(N)[nH]c21 :: > 100 µM

Provide reported CC50 for each item, in the same order as listed.
1. CCCCCCCCCCCCCCCCOCCCOP(=O)(O)CC/C=C\Cn1cc(C)c(=O)[nH]c1=O
2. CCCCCCCCCCCCCCCCOCCCOP(=O)(O)CC/C=C\Cn1ccc(=O)[nH]c1=O
3. Nc1ccn(C/C=C\CCP(=O)(O)O)c(=O)n1
4. CCCCCCCCCCCCCCCCOCCCOP(=O)(O)CC/C=C\Cn1cnc2c(N)ncnc21
5. Nc1nc(=O)c2ncn(C/C=C\CCP(=O)(O)O)c2[nH]1

> 100 µM
> 100 µM
> 100 µM
43 µM
> 100 µM

---

test: Cytotoxicity against MT2 cells after 72 hrs; format: cell-based; details: human
Give CC50 at 72 h for every item shown.

CCCCCCCCCCCCCCCCOCCCOP(=O)(O)CC/C=C\Cn1ccc(N)nc1=O :: 3.3 µM

We now examine a further compound.
Look up CC50 at 72 h of `CCCCCCCCCCCCCCCCOCCCOP(=O)(O)CC/C=C\Cn1cc(C)c(=O)[nH]c1=O` and report it.
1.3 µM

---

assay: Cytotoxicity against Daudi cells; type: cell-based; settings: human
Readout Label: CC50

Given `CCCCCCCCCCCCCCCCOCCCOP(=O)(O)CC/C=C\Cn1cnc2c(N)ncnc21` , respond with its CC50.
> 100 µM

---

system: Hepatitis B virus; assay: Antiviral activity against HBV with lamivudine-resistant polymerase L180M/M204V double mutant in Huh7 cells after 5 days; type: functional, organism-based; details: Huh-7, 120 h
Readout Label: EC50

Some entries whose results are on file:
CCCCCCCCCCCCCCCCOCCCOP(=O)(O)CC/C=C\Cn1cc(C)c(=O)[nH]c1=O :: > 100 µM
CCCCCCCCCCCCCCCCOCCCOP(=O)(O)CC/C=C\Cn1cnc2c(=O)nc(N)[nH]c21 :: > 100 µM

// batch mode: one EC50 value per listed entry
1. CCCCCCCCCCCCCCCCOCCCOP(=O)(O)CC/C=C\Cn1cnc2c(N)ncnc21
2. CCCCCCCCCCCCCCCCOCCCOP(=O)(O)CC/C=C\Cn1ccc(N)nc1=O

8.1 µM
> 100 µM

---

Record form. Attribute: EC50. Fill in for each entry.
system: Hepatitis B virus; assay: Antiviral activity against HBV with lamivudine-resistant polymerase L180M mutant in Huh7 cells after 5 days; assay type: functional, organism-based; conditions: Huh-7, 120 h

CCCCCCCCCCCCCCCCOCCCOP(=O)(O)CC/C=C\Cn1cnc2c(N)ncnc21 :: 15 µM
CCCCCCCCCCCCCCCCOCCCOP(=O)(O)CC/C=C\Cn1ccc(N)nc1=O :: > 100 µM
CCCCCCCCCCCCCCCCOCCCOP(=O)(O)CC/C=C\Cn1cc(C)c(=O)[nH]c1=O :: > 100 µM

Proceed to the following item.
Return the recorded EC50 value; entry: `CCCCCCCCCCCCCCCCOCCCOP(=O)(O)CC/C=C\Cn1cnc2c(=O)nc(N)[nH]c21`
> 100 µM

---

assay: Cytotoxicity against HepG2 2.2.15 cells assessed as inhibition of uptake of neutral red dye after 24 hrs; type: cell-based; settings: human
Readout Label: CC50 at 24 h (µM)
One number for each entry, in µM.

Nc1ccn(C/C=C\CCP(=O)(O)O)c(=O)n1 :: 600
CCCCCCCCCCCCCCCCOCCCOP(=O)(O)CC/C=C\Cn1cnc2c(N)ncnc21 :: 116
CCCCCCCCCCCCCCCCOCCCOP(=O)(O)CC/C=C\Cn1cc(C)c(=O)[nH]c1=O :: 122
Cc1cn(C/C=C\CCP(=O)(O)O)c(=O)[nH]c1=O :: 620
CCCCCCCCCCCCCCCCOCCCOP(=O)(O)CC/C=C\Cn1ccc(N)nc1=O :: 621

Provide the reported CC50 at 24 h of each entry below, same order.
1. Nc1ncnc2c1ncn2C/C=C\CCP(=O)(O)O
2. O=c1nc(O)ccn1C/C=C\CCP(=O)(O)O
3. CCCCCCCCCCCCCCCCOCCCOP(=O)(O)CC/C=C\Cn1ccc(=O)[nH]c1=O
4. Nc1nc(=O)c2ncn(C/C=C\CCP(=O)(O)O)c2[nH]1

1. 639
2. 712
3. 155
4. 610

---

test system: Vaccinia virus; test: Antiviral activity against Vaccinia virus Copenhagen in HFF cells by plaque reduction assay; format: functional, organism-based; conditions: Orthopoxvirus vaccinia
Readout Label: EC50

In the examples that follow, each entry is paired with its recorded EC50.
Nc1nc(=O)c2ncn(C/C=C\CCP(=O)(O)O)c2[nH]1 :: > 100 µM
CCCCCCCCCCCCCCCCOCCCOP(=O)(O)CC/C=C\Cn1cnc2c(N)ncnc21 :: > 30 µM
Cc1cn(C/C=C\CCP(=O)(O)O)c(=O)[nH]c1=O :: > 100 µM
CCCCCCCCCCCCCCCCOCCCOP(=O)(O)CC/C=C\Cn1cc(C)c(=O)[nH]c1=O :: > 20 µM
CCCCCCCCCCCCCCCCOCCCOP(=O)(O)CC/C=C\Cn1ccc(=O)[nH]c1=O :: > 100 µM
O=c1nc(O)ccn1C/C=C\CCP(=O)(O)O :: > 100 µM

Count: 4. Required value per item: EC50.
1. CCCCCCCCCCCCCCCCOCCCOP(=O)(O)CC/C=C\Cn1ccc(N)nc1=O
2. CCCCCCCCCCCCCCCCOCCCOP(=O)(O)CC/C=C\Cn1cnc2c(=O)nc(N)[nH]c21
3. Nc1ncnc2c1ncn2C/C=C\CCP(=O)(O)O
4. Nc1ccn(C/C=C\CCP(=O)(O)O)c(=O)n1

1. > 20 µM
2. 7.5 µM
3. > 100 µM
4. > 100 µM

---

assay: Cytotoxicity against Huh7 cells; format: cell-based, Huh-7; conditions: human
Please respond with reported CC50 for every item in the list.
Put down the number, then write its unit next to it.

Known results for compounds:
CCCCCCCCCCCCCCCCOCCCOP(=O)(O)CC/C=C\Cn1cc(C)c(=O)[nH]c1=O :: 120 µM
CCCCCCCCCCCCCCCCOCCCOP(=O)(O)CC/C=C\Cn1ccc(N)nc1=O :: 523 µM
CCCCCCCCCCCCCCCCOCCCOP(=O)(O)CC/C=C\Cn1cnc2c(N)ncnc21 :: 110 µM

Continue with the compound presented below.
Specify reported CC50 for the compound shown: `CCCCCCCCCCCCCCCCOCCCOP(=O)(O)CC/C=C\Cn1cnc2c(=O)nc(N)[nH]c21`
929 µM
